- targetEntity: YoaA (6xHis);chi (DNA polymerase III clamp loader subunit) (Escherichia coli;Escherichia coli, UniProt P76257;P28905 1-636;1-147, |)
- Sequence (P76257 whole entry, chain 1 of 2): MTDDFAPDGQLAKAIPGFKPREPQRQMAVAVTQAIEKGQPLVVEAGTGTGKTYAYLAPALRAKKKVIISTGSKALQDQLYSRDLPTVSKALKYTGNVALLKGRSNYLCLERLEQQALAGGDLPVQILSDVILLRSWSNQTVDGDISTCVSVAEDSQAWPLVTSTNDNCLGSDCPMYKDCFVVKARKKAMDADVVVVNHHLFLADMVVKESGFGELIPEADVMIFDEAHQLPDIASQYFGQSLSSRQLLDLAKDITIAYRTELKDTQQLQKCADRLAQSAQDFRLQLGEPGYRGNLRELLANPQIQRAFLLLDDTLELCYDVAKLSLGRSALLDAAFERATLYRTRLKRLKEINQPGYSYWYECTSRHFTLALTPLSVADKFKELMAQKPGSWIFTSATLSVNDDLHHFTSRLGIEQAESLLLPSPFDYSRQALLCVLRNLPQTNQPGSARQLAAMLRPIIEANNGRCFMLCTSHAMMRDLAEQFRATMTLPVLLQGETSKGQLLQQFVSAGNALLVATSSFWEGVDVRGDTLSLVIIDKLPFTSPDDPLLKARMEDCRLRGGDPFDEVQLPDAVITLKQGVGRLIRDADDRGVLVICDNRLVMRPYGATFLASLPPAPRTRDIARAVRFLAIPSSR
- Sequence (P28905 whole entry, chain 2 of 2): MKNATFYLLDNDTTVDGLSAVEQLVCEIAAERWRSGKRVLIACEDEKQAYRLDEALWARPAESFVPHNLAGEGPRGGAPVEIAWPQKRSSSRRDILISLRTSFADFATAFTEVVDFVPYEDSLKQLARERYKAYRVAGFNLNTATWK
- measurementProtocol: fluorescein quenching titration; 0.5 mM ATPgS; rough estimate, no saturation; assay buffer B (composition not in the material) with 0.5 mM ATPgS, 50 nM DNA, YoaA-chi 0.1 nM-2 uM (Kd titration) or 1 uM; temperature and pH not given
- assayContext: protein: recombinant;recombinant; 6xHis (His-YoaA);; copies: 1;1; label: fluorescein; 20 bp; 35 nt 5' overhang on strand 1; other end blunt
pKd: −log10 of the molar value.
measurementName: pKd

**Q:** # pKd lookup, item B2 5' overhang duplex (S18 + S5) (dsDNA, fluorescein at T15 of strand 2 (printed F, written as T), 6 nt from junction) DNA 1: TTTTTTTTTTTTTTTTTTTTTTTTTTTTTTTTTTTATAAAAGGGACATTCTGGCC DNA 2: GGCCAGAATGTCCCTTTTAT
**A:** ~6.46

Data credit: paper PMC9826845
